Overview of recorded IC50 at 72 h for various compounds
Assay info: DNDI: Cytotoxicity against L929 mouse fibroblasts, 72 hour.
Assay type: toxicity, cell-based
Study conditions: mouse, L929 mouse fibroblasts

Sample records with IC50 at 72 h:
CN1CC(OC(=O)c2ccccc2)=CC1=O ... > 10 µg/mL
CCCOc1ccc(-c2nc(CNC3CC(C)CC(C)(C)C3)co2)cc1 (stereo not given) ... < 3.13 µg/mL
Cc1cc(NC2CCN(C(=O)OC(C)(C)C)C2)n2nc(-c3cccc(F)c3)cc2n1 (stereo not given) ... > 10 µg/mL
C/C(O)=C1\C(=O)NC(CC(C)C)C1=O (stereo not given) ... > 10 µg/mL
CC(C)(C)OC(=O)N1CCC(Nc2cc(-c3ccccc3)nc3cc(-c4ccc(F)cc4)nn23)C1 (stereo not given) ... > 10 µg/mL

The compound CC1CC(NCc2coc(-c3ccc(Br)cc3)n2)CC(C)(C)C1 (stereo not given) showed IC50 at 72 h equal to < 3.13 µg/mL

Noted for COc1ccc(CNC(c2nc(Cc3ccccc3)c(N3CCCCC3)o2)C2CCCCC2)cc1OC (stereo not given) : its IC50 at 72 h reads > 10 µg/mL

* * *

Assay info: DNDI: Cytotoxicity against L929 mouse fibroblasts, 72 hour.
Assay type: toxicity, cell-based
Study conditions: mouse, L929 mouse fibroblasts
Metric: IC50 at 72 h

CCCCCOc1ccc(-c2nc(CN[C@@H]3C[C@@H]4C[C@H]([C@H]3C)C4(C)C)co2)cc1 ... < 3.13 µg/mL
COc1ccc(/C(=N/O)Nc2cccc(C#N)c2)cc1 ... > 10 µg/mL
COc1ccccc1CNC(c1nc(-c2ccccc2)c(N2CCOCC2)o1)C1CC1 (stereo not drawn) ... > 10 µg/mL
Cc1cc(NCCCn2ccnc2)n2nc(-c3cccc(F)c3)cc2n1 ... > 10 µg/mL
CCc1cccc(N/C(=N/O)c2ccc(OC)cc2)c1 ... > 10 µg/mL
Cc1cc(NCCCN2CCOCC2)n2nc(-c3cccc(F)c3)cc2n1 ... > 10 µg/mL
COc1ccccc1/C(=N/O)NC1CCCCC1 ... > 10 µg/mL
COc1ccc(S(=O)(=O)NC2CCCCC2)cc1 ... > 10 µg/mL
CCCCCC(C)NCc1coc(-c2ccc(OC(CC)CC)cc2)n1 (stereo not drawn) ... 0.85 µg/mL
CCCCCC(C)NCc1coc(-c2ccc(OCCCC)cc2)n1 (stereo not drawn) ... 1.54 µg/mL

The molecule listed as CCC(CC)Oc1ccc(-c2nc(CNCCCN(C)C)co2)cc1 has a reported IC50 at 72 h of > 10 µg/mL

The measured IC50 at 72 h associated with CCCCCC(C)NCc1coc(-c2ccc(CC)cc2)n1 (stereo not drawn) reads 2.61 µg/mL

Lookup result for COc1ccc(/C(=N/O)Nc2cccc(C(F)(F)F)c2)cc1 ; measured IC50 at 72 h: 8.11 µg/mL
